subject_of_test: human A1AR (Homo sapiens)
Construct: expressed in transfected cells; host or cells: HEK293 (membrane preparations)
method_notes: Radioligand binding assay, displacement of [3H]DPCPX
experimental_setup: radioligand binding; Fig. 1, Table S5
pKi: −log10 of the molar value.
result_type: pKi

[[record]]
structure = "CC1(C(=O)Nc2nc3cc(Br)ccc3s2)CCCC1"
subject_of_test = "human A1AR (Homo sapiens)"
recorded_number = 8.00


A. CC(C)(C)C(=O)Nc1nc2ccccc2s1
B. CC1(C(=O)Nc2nc3ccccc3s2)CCCC1
C. O=C(Nc1nc2ccccc2s1)C1CCCC1
D. CC(C)(C)C(=O)Nc1nc2cc(Br)ccc2s1
Sort low-to-high on pKi, please. Response field: labels, in requested order. C, A, B, D
(C: 6.21, A: 6.55, B: 7.02, D: 7.40)

----------
subject_of_test: human A1AR (Homo sapiens, UniProt P30542)
Construct: expressed in transfected cells; host or cells: HEK293 (membrane preparations)
Sequence (P30542 1-326): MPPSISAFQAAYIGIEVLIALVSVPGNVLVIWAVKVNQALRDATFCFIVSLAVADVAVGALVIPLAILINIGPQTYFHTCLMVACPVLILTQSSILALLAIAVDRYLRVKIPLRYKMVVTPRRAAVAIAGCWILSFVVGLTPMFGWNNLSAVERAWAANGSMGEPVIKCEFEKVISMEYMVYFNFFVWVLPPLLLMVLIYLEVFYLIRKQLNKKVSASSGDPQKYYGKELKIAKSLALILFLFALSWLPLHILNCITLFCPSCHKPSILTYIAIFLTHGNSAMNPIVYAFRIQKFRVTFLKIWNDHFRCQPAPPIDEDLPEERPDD
method_notes: Radioligand binding assay, displacement of [3H]DPCPX
experimental_setup: reference compound 5; based on Table S3
result_type: ΔΔG Experimental A1AR

Dear colleague, please send me the reported ΔΔG Experimental A1AR for `Cc1ccc2nc(NC(=O)C(C)(C)C)sc2c1` when you can. > 3.5 kcal/mol

----------
Test system: human A1AR
method_notes: Radioligand binding assay, displacement of [3H]DPCPX
experimental_setup: A1AR versus A2AAR; Fig. 1
result_type: selectivity for the A1AR (fold)

[[record]]
compound = "CC(=O)Nc1nc2ccccc2s1 [Compound 1]"
units_text = "fold"
recorded_number = 7


A. CC1(C(=O)Nc2nc3ccccc3s2)CCCC1 [Compound 20]
B. CC(C)(C)C(=O)Nc1nc2cc(Br)ccc2s1 [Compound 15]
C. CC1(C(=O)Nc2nc3cc(Br)ccc3s2)CCCC1 [Compound 22]
Sort low-to-high on selectivity for the A1AR, please. Response field: labels, in requested order. A, B, C
(A: 6 fold, B: 19 fold, C: 38 fold)

----------
subject_of_test: human A2AAR (Homo sapiens)
Construct: expressed in transfected cells; host or cells: HEK293 (membrane preparations)
Sequence (P29274 whole entry): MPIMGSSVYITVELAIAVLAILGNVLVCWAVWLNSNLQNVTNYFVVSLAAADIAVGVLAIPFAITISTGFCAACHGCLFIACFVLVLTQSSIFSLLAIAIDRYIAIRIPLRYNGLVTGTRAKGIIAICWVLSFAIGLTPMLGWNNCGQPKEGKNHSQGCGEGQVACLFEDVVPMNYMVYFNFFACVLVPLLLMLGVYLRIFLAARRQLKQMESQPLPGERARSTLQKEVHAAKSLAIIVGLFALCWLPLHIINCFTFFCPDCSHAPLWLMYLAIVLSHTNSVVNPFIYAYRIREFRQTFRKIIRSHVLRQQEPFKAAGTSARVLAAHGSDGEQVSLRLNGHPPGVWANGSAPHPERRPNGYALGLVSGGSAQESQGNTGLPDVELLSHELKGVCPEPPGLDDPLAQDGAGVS
method_notes: Radioligand binding assay, displacement of [3H]ZM241385
experimental_setup: displacement of [3H]ZM241385; means ± SEM from 2-4 independent experiments
result_type: Ki (µM)

For orientation, consider the following solved cases.
[[record]]
structure = "Cc1ccc2sc(NC(=O)C(C)(C)C)nc2c1"
result_type = "Ki"
recorded_number = 1.45

[[record]]
structure = "O=C(Nc1nc2ccccc2s1)C1CC1"
result_type = "Ki"
recorded_number = 3.27

[[record]]
structure = "O=C(Nc1nc2ccccc2s1)C1CCCCC1"
result_type = "Ki"
recorded_number = 3.41

[[record]]
structure = "COc1ccc2sc(NC(=O)C(C)(C)C)nc2c1"
result_type = "Ki"
recorded_number = 1.6

[[record]]
structure = "Cc1cccc2sc(NC(=O)C(C)(C)C)nc12"
result_type = "Ki"
recorded_number = 6.75

[[record]]
structure = "CCc1ccc2sc(NC(=O)C3(C)CCCC3)nc2c1"
result_type = "Ki"
recorded_number = 2.15

[[record]]
structure = "CC1(C(=O)Nc2nc3cc(Cl)ccc3s2)CCCC1"
result_type = "Ki"
recorded_number = 0.252

[[record]]
structure = "O=C(Nc1nc2ccccc2s1)c1ccccc1"
result_type = "Ki"
recorded_number = 0.386


A. CC1(C(=O)Nc2nc3cc(Br)ccc3s2)CCCC1
B. CCc1ccc2sc(NC(=O)C(C)(C)C)nc2c1
C. Cc1ccc2nc(NC(=O)C(C)(C)C)sc2c1
Rank by Ki (largest to smallest). Response field: labels, in requested order. C, B, A
(C: 25.8 µM, B: 3.38 µM, A: 0.384 µM)

----------
subject_of_test: human A1AR (Homo sapiens)
Construct: expressed in transfected cells; host or cells: HEK293 (membrane preparations)
method_notes: Radioligand binding assay, displacement of [3H]DPCPX
experimental_setup: reference compound 5; based on Table S3
result_type: ΔΔG Experimental A1AR

Please respond with reported ΔΔG Experimental A1AR (system human A1AR (Homo sapiens)) for Cc1cccc2sc(NC(=O)C(C)(C)C)nc12 [Compound 12] . 0.8 ± 0.1 kcal/mol

----------
Tested on: hA1AR
method_notes: Ki values of known ligands downloaded from the ChEMBL database
Format: binding, human
experimental_setup: from ChEMBL Ki values hA1AR and hA2AAR
result_type: A1AR selectivity

[[record]]
compound = "Cc1nc(N)c2nc(-n3nccn3)n(C)c2n1 [CHEMBL194290]"
result_type = "A1AR selectivity"
recorded_number = 6.8


a. Nc1nc2ccccc2n2nc(-c3ccco3)nc12 [CHEMBL261345]
b. Cn1ncc2nc(N)n3nc(-c4ccco4)nc3c21 [CHEMBL1935752]
c. Cn1c(-n2nccn2)nc2c(N)ncnc21 [CHEMBL194728]
Rank by A1AR selectivity (largest to smallest). Response field: labels, in requested order. c, a, b

----------
subject_of_test: human A1AR (Homo sapiens, UniProt P30542)
Construct: expressed in transfected cells; host or cells: HEK293 (membrane preparations)
Sequence (P30542 1-326): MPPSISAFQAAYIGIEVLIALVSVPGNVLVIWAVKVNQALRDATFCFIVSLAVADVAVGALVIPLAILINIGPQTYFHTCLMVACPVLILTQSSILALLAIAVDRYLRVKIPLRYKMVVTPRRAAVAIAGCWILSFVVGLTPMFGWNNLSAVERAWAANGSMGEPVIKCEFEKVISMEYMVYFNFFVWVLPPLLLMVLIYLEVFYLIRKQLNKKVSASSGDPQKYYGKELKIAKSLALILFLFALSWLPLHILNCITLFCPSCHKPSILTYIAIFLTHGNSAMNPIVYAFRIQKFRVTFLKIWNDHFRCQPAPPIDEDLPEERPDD
method_notes: Radioligand binding assay, displacement of [3H]DPCPX
experimental_setup: displacement of [3H]DPCPX; means ± SEM from 2-4 independent experiments
pKi: −log10 of the molar value.
result_type: pKi

For orientation, consider the following solved cases.
[[record]]
structure = "COc1ccc2sc(NC(=O)C(C)(C)C)nc2c1"
recorded_number = 6.82

[[record]]
structure = "Cc1ccc2sc(NC(=O)C3(C)CCCC3)nc2c1"
recorded_number = 7.24


a. CC1(C(=O)Nc2nc3cc(C#N)ccc3s2)CCCC1
b. CCc1ccc2sc(NC(=O)C(C)(C)C)nc2c1
// max by pKi over [ a , b ] Indicate which entry you chose by stating its label. a
(a: 7.19, b: 6.84)

----------
subject_of_test: human A2AAR (Homo sapiens)
Construct: expressed in transfected cells; host or cells: HEK293 (membrane preparations)
method_notes: Radioligand binding assay, displacement of [3H]ZM241385
experimental_setup: reference compound 5; based on Table S3
result_type: ΔΔG Experimental A2AAR (kcal/mol)

For orientation, consider the following solved cases.
[[record]]
structure = "CCc1ccc2sc(NC(=O)C(C)(C)C)nc2c1"
recorded_number = 0.5

[[record]]
structure = "Cc1cccc2sc(NC(=O)C(C)(C)C)nc12"
recorded_number = 0.9


a. COc1ccc2sc(NC(=O)C(C)(C)C)nc2c1
b. Cc1ccc2nc(NC(=O)C(C)(C)C)sc2c1
c. CC(C)(C)C(=O)Nc1nc2cc(C#N)ccc2s1
Rank by ΔΔG Experimental A2AAR (largest to smallest). Response field: labels, in requested order. b, c, a

----------
subject_of_test: human A2AAR (Homo sapiens)
Construct: expressed in transfected cells; host or cells: HEK293 (membrane preparations)
method_notes: Radioligand binding assay, displacement of [3H]ZM241385
experimental_setup: radioligand binding, Table S5
result_type: pKi
Answer as the number alone; pKi is minus log10 of concentration in mol/L.

Please respond with reported pKi (system human A2AAR (Homo sapiens)) for COc1cccc2sc(NC(=O)c3ccccc3)nc12 [Compound 26] . 6.97

----------
subject_of_test: human A1AR (Homo sapiens, UniProt P30542)
Construct: expressed in transfected cells; host or cells: HEK293 (membrane preparations)
method_notes: Radioligand binding assay, displacement of [3H]DPCPX
experimental_setup: reference compound 9; based on Table S3
result_type: ΔΔG Experimental A1AR

[[record]]
compound = "CCc1ccc2sc(NC(=O)C3(C)CCCC3)nc2c1 [Compound 24]"
result_type = "ΔΔG Experimental A1AR"
result = "–1.1 ± 0.1 kcal/mol"

[[record]]
compound = "CC1(C(=O)Nc2nc3ccccc3s2)CCCC1 [Compound 20]"
result_type = "ΔΔG Experimental A1AR"
result = "–1.1 ± 0.1 kcal/mol"

